# target desc: KRAS 4B G12C protein (Homo sapiens, UniProt P01116, G12C)
# Construct: This protein contained 188 amino acids in total, including an N-terminal 6-Histidine tag; made in house; host or cells: E. coli BL21
# test summary: In vitro covalent adduct formation (CAF) assay by LC-MS
# Assay type: binding
# stated conditions: 60 minutes; compound 10 μM, protein 5 μM, 22° C.; percentage of protein bound by the compound
Please provide measured CAF (10 minutes/60 minutes) at 10 micromolar: 60 minutes for the entries that follow.

Give recorded CAF (10 minutes/60 minutes) at 10 micromolar: 60 minutes. C=CC(=O)N1CCN(c2nc(O)nc3c2CN(C2CCc4ccccc42)C3)C[C@@H]1CC#N (stereo partly drawn) [1-135]
7%

Report CAF (10 minutes/60 minutes) at 10 micromolar: 60 minutes, nothing else, for this molecule: C=C(F)C(=O)N1CCN(c2nc(OC[C@@H]3CCCN3C)nc3c2CN(Cc2n[nH]c4ccccc24)C3)C[C@@H]1CC#N [1-345]
0%/ 0%

Provide one value: measured CAF (10 minutes/60 minutes) at 10 micromolar: 60 minutes of C=CC(=O)N1CCN(c2nc(OC[C@@H]3CCCN3C)nc3c2CN(Cc2c(Cl)ccc(O)c2C)C3)C[C@@H]1CC#N [1-312]
95%/ 95%

====

# target desc: KRAS 4B G12C protein (Homo sapiens, UniProt P01116, G12C)
# Construct: This protein contained 188 amino acids in total, including an N-terminal 6-Histidine tag; made in house; host or cells: E. coli BL21
# test summary: In vitro covalent adduct formation (CAF) assay by LC-MS
# Format: binding
# stated conditions: 10 minutes; compound 10 μM, protein 5 μM, 22° C.; percentage of protein bound by the compound
Kindly supply the reported CAF (10 minutes/60 minutes) at 10 micromolar: 10 minutes values for the records listed here.

Retrieve CAF (10 minutes/60 minutes) at 10 micromolar: 10 minutes on KRAS 4B G12C protein (Homo sapiens, UniProt P01116, G12C); query C=CC(=O)N1CC2CC1CN2c1nc(OC[C@@H]2CCCN2C)nc2c1CN(C1CCc3ccccc31)C2 (some centres unmarked)
0%/ 0%

Give measured CAF (10 minutes/60 minutes) at 10 micromolar: 10 minutes for C#Cc1ccccc1CN1Cc2nc(OC[C@@H]3CCCN3C)nc(N3CCN(C(=O)C=C)[C@@H](CC#N)C3)c2C1 (KRAS 4B G12C protein (Homo sapiens, UniProt P01116, G12C)).
0%/ 0%

Write down the reported CAF (10 minutes/60 minutes) at 10 micromolar: 10 minutes (system: KRAS 4B G12C protein (Homo sapiens, UniProt P01116, G12C)) of C=CC(=O)N1C2COCC1CN(c1nc(OC[C@@H]3CCCN3C)nc3c1CN(Cc1cc(OC)ccc1Cl)C3)C2
0%/ 0%

Provide KRAS 4B G12C protein (Homo sapiens, UniProt P01116, G12C) CAF (10 minutes/60 minutes) at 10 micromolar: 10 minutes reading for C=CC(=O)N1CCN(c2nc(OCCN3CCOCC3)nc3c2CN(Cc2cc(O)ccc2Cl)C3)C[C@@H]1CC#N .
98%/ 98%

Give measured CAF (10 minutes/60 minutes) at 10 micromolar: 10 minutes for C=CC(=O)N1CCN(c2nc(OC[C@@H]3CCCN3C)nc3c2CN(C2CCc4ccccc42)C3)C[C@@H]1C[S+](C)[O-] (some centres unmarked) (KRAS 4B G12C protein (Homo sapiens, UniProt P01116, G12C)).
0%/ 0%

Provide CAF (10 minutes/60 minutes) at 10 micromolar: 10 minutes, system KRAS 4B G12C protein (Homo sapiens, UniProt P01116, G12C), entry C=CC(=O)N1CC2CC(=O)CC(C1)N2c1nc(O[C@@H]2CN(C)C[C@H]2OC)nc2c1CN(C1CCc3ccccc31)C2 (some centres unmarked)
0%/ 0%

Look up and report measured CAF (10 minutes/60 minutes) at 10 micromolar: 10 minutes (KRAS 4B G12C protein (Homo sapiens, UniProt P01116, G12C)) for the following molecule: CN1CCC[C@H]1COc1nc2c(c(N3CCN(C(=O)C45CC4C5)[C@@H](CC#N)C3)n1)CN(C1CCc3ccccc31)C2 (some centres unmarked)
0%/ 0%

Give the observed CAF (10 minutes/60 minutes) at 10 micromolar: 10 minutes of C=CC(=O)N1CCN(c2nc(OC[C@@H]3CCCN3C)nc3c2CN(Cc2c(Cl)ccc(O)c2C)C3)C[C@@H]1CC#N for KRAS 4B G12C protein (Homo sapiens, UniProt P01116, G12C).
95%/ 95%

Enter measured CAF (10 minutes/60 minutes) at 10 micromolar: 10 minutes, system KRAS 4B G12C protein (Homo sapiens, UniProt P01116, G12C), for the molecule shown: C=C(F)C(=O)N1CCN(c2nc(OC[C@@H]3CCCN3C)nc3c2CN(Cc2cccc4ncccc24)C3)C[C@@H]1CC#N
0%/ 0%

Give KRAS 4B G12C protein (Homo sapiens, UniProt P01116, G12C) CAF (10 minutes/60 minutes) at 10 micromolar: 10 minutes for the following molecule: C=CC(=O)N1CC2COCC(C1)N2c1nc(OC[C@@H]2CCCN2C)nc2c1CN(Cc1cc(OC)ccc1Cl)C2
0%/ 0%

Report the value of CAF (10 minutes/60 minutes) at 10 micromolar: 10 minutes obtained on KRAS 4B G12C protein (Homo sapiens, UniProt P01116, G12C) for C=CC(=O)N1CCN(c2nc(OC[C@@H]3CCCN3C)nc3c2CN(C2CCc4ccccc42)C3)C[C@@H]1CNC(C)=O (some centres unmarked) .
0%/ 0%
